system: DU-145; assay: SRB colorimetric assay of cell growth and viability, DU-145; assay type: cell-based, human; settings: DU-145; 48 hours exposure
Where a SMILES comes first, the peptide text is derived from it. Bridges are numbered along the chain shown (N, C = ends). [ ]: non-standard residue; d: D form. The star is where a group is joined. d(aIle) = CC[C@H](C)[C@@H](N)C(=O)O; d(aThr) = C[C@@H](O)[C@@H](N)C(=O)O; Hexanoyl(5-Me) = CC(C)CCCC(=O)*; Orn = NCCC[C@H](N)C(=O)O; Dhb = C/C=C(\N)C(=O)O
Measurement Type: LC50 (concentration causing 50% net cell kill)
Answers without a unit are incomplete; give the number and then its unit.

Inquiry: Look up LC50 (concentration causing 50% net cell kill) of C/C=C1\NC(=O)[C@H](Cc2ccccc2)NC(=O)[C@@H](C(C)C)NC(=O)[C@@H]([C@@H](C)CC)NC(=O)[C@H](NC(=O)[C@H](NC(=O)[C@H](CCCN)NC(=O)[C@H]2CCCN2C(=O)[C@H](NC(=O)[C@@H](NC(=O)[C@H](C)NC(=O)[C@H](NC(=O)CCCC(C)C)C(C)C)C(C)C)C(C)C)[C@@H](C)CC)[C@@H](C)OC(=O)[C@H](C(C)C)NC1=O [Compound 112, [Ala^12]-KF] ({Hexanoyl(5-Me)}-[dV]AV[dV][dP][Orn][d(aIle)][d(aThr)][d(aIle)][dV]F[Dhb]V; ester 8-C) and report it.
Reply text: 5.91 µM

====

tested on: HT-29; assay: SRB colorimetric assay of cell growth and viability, HT-29; format: cell-based, human; details: 48 hours exposure, SRB; read-out: LC50 HT-29
Where a SMILES comes first, the peptide text is derived from it. Bridges are numbered along the chain shown (N, C = ends). [ ]: non-standard residue; d: D form. The star is where a group is joined. d(aIle) = CC[C@H](C)[C@@H](N)C(=O)O; d(aThr) = C[C@@H](O)[C@@H](N)C(=O)O; Hexanoyl(5-Me) = CC(C)CCCC(=O)*; Orn = NCCC[C@H](N)C(=O)O; Dha = C=C(N)C(=O)O
Measurement Type: CC50 (µM)
Numbers only here, please. The scale is µM.

Inquiry: Kindly indicate its recorded CC50. Item: C=C1NC(=O)[C@H](Cc2ccccc2)NC(=O)[C@@H](C(C)C)NC(=O)[C@@H]([C@@H](C)CC)NC(=O)[C@H](NC(=O)[C@H](NC(=O)[C@H](CCCN)NC(=O)[C@H]2CCCN2C(=O)[C@H](NC(=O)[C@@H](NC(=O)[C@@H](NC(=O)[C@H](NC(=O)CCCC(C)C)C(C)C)[C@@H](C)O)C(C)C)C(C)C)[C@@H](C)CC)[C@@H](C)OC(=O)[C@H](C(C)C)NC1=O [Compound 67, [Dha^2]-KF] ({Hexanoyl(5-Me)}-[dV]TV[dV][dP][Orn][d(aIle)][d(aThr)][d(aIle)][dV]F[Dha]V; ester 8-C)
Reply text: 4.17

====

tested on: A-549; test: SRB colorimetric assay of cell growth and viability, A-549; type: cell-based, human; conditions: 48 hours exposure; read-out: LC50 A-549
Where a SMILES comes first, the peptide text is derived from it. Bridges are numbered along the chain shown (N, C = ends). [ ]: non-standard residue; d: D form. The star is where a group is joined. d(aIle) = CC[C@H](C)[C@@H](N)C(=O)O; d(aThr) = C[C@@H](O)[C@@H](N)C(=O)O; Hexanoyl(5-Me) = CC(C)CCCC(=O)*; Orn = NCCC[C@H](N)C(=O)O; Dhb = C/C=C(\N)C(=O)O
For each of the molecules below, state its CC50.
Please respond with the number in µM and leave the unit unwritten.

Inquiry: Specify measured CC50 for C/C=C1\NC(=O)[C@H](Cc2ccccc2)NC(=O)[C@@H](C(C)C)NC(=O)[C@@H]([C@@H](C)CC)NC(=O)[C@H](NC(=O)[C@H](NC(=O)[C@H](CCCN)NC(=O)[C@H]2CCCN2C(=O)[C@H](NC(=O)[C@H](Cc2ccccc2)NC(=O)[C@@H](NC(=O)[C@H](NC(=O)CCCC(C)C)C(C)C)[C@@H](C)O)C(C)C)[C@@H](C)CC)[C@@H](C)OC(=O)[C@H](C(C)C)NC1=O [Compound 43, [Phe^11]-KF] ({Hexanoyl(5-Me)}-[dV]TF[dV][dP][Orn][d(aIle)][d(aThr)][d(aIle)][dV]F[Dhb]V; ester 8-C) .
Reply text: 3.41

Inquiry: State its CC50 for this molecule: C/C=C1\NC(=O)[C@H](Cc2ccccc2)NC(=O)[C@@H](C(C)C)NC(=O)[C@@H]([C@@H](C)CC)NC(=O)[C@H](NC(=O)[C@H](NC(=O)[C@H](CCCN)NC(=O)[C@H]2CCCN2C(=O)[C@H](NC(=O)[C@@H](NC(=O)[C@@H](NC(=O)[C@@H](CC(C)C)NC(=O)CCCC(C)C)[C@@H](C)O)C(C)C)C(C)C)[C@@H](C)CC)[C@@H](C)OC(=O)[C@H](C(C)C)NC1=O [Compound 35, [D-Leu^13]-KF]
Reply text: 2.65

Inquiry: Complete the entry with CC50 for C/C=C1\NC(=O)[C@H](Cc2ccccc2)NC(=O)[C@@H](C(C)C)NC(=O)[C@@H]([C@@H](C)CC)NC(=O)[C@H](NC(=O)[C@H](NC(=O)[C@H](CCCN)NC(=O)[C@H]2CCCN2C(=O)[C@H](NC(=O)[C@@H](NC(=O)[C@@H](NC(=O)[C@H](NC(=O)CCCCCCCCCCCCCCCCCCC)C(C)C)[C@@H](C)O)C(C)C)C(C)C)[C@@H](C)CC)[C@@H](C)OC(=O)[C@H](C(C)C)NC1=O [Compound 13, [Icos^14]-KF]
Reply text: 3.82

Inquiry: Specify CC50 for C/C=C1\NC(=O)[C@H](Cc2ccccc2)NC(=O)[C@@H](C(C)C)NC(=O)[C@@H]([C@@H](C)CC)NC(=O)[C@H](NC(=O)[C@H](NC(=O)[C@H](CCCN)NC(=O)[C@H]2CCCN2C(=O)[C@H](NC(=O)[C@@H](NC(=O)[C@@H](NC(=O)[C@H](NC(=O)CCCC(C)C)C(C)C)[C@@H](C)O)C(C)C)C(C)C)[C@@H](C)CC)COC(=O)[C@H](C(C)C)NC1=O [Compound 3, [D-Ser^6]-KF] ({Hexanoyl(5-Me)}-[dV]TV[dV][dP][Orn][d(aIle)][dS][d(aIle)][dV]F[Dhb]V; ester 8-C) and stop.
Reply text: 4.47
